B1: SCNN1D (parent)
chain: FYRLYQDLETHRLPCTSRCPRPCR

# Variants of: B1
# assay: protein stability index of a GFP-peptide fusion (GPS, HEK-293T) (PSI 1-6); higher = more stable;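 note: lentivirally expressed fusions sorted by FACS into six bins by GFP to DsRed ratio, PSI derived from sequencing read proportions per bin multiplied by bin number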
# condition.parameters: c terminus: a fixed tail appended
observation.type: protein stability index
Numbers only.

Solved cases below.
- variant.id: "C19V"
  protein stability index: 2.1
- variant.id: "L13W"
  protein stability index: 2.21
- variant.id: "L13S"
  protein stability index: 2.67
- variant.id: "P14K"
  protein stability index: 1.89
- variant.id: "F1C"
  protein stability index: 2.22

// for each variant in input: emit protein stability index
1. C15Q
2. P20C
3. Y2M
4. F1M
5. L8Y

Data returned:
1: 1.76; 2: 2.51; 3: 2.4; 4: 2.02; 5: 1.53

// for each variant in input: emit protein stability index
1. T10M
2. P20H
3. R21T
4. R24T

Data returned:
1. 1.86
2. 2.18
3. 2.1
4. 3.87

// for each variant in input: emit protein stability index
1. C19E
2. R18M
3. D7L
4. Y2G
5. Y5K
6. F1H
7. C23E
8. Q6P

Data returned:
[2.66, 2.29, 1.76, 2.74, 2.6, 3.06, 2.43, 1.38]
